# Measured on: Protein phosphatase methylesterase 1 (Homo sapiens)
# Measurement notes: PME-1 inhibitor activity retest, confirmation, biochemical, fluorescence polarization, FP-Rh probe, triplicate (AID 2171);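 further: 0% = enzyme with DMSO and 100% = wells lacking PME-1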
# Run parameters: recombinant PME-1, FP-Rh probe fluorescence polarization; at 5.9 µM; active compounds read high
Quick rule for you: inhibition at 30% or higher means MET, lower means NOT MET.

INSERT INTO results (compound, measured_on, discrete_label) VALUES
  ('Cc1nc2c(=O)n(C)c(=O)nc-2n(C)n1', 'Protein phosphatase methylesterase 1 (Homo sapiens)', 'MET'),
  ('Oc1c(Br)c(Br)c(Br)c(Br)c1Br', 'Protein phosphatase methylesterase 1 (Homo sapiens)', 'MET'),
  ('CC(=O)c1ccc2c(c1)C1C(Cl)C(Sc3ccccc3[N+](=O)[O-])CC1C(C(=O)O)N2 (stereo unspecified)', 'Protein phosphatase methylesterase 1 (Homo sapiens)', 'NOT MET'),
  ('Cn1ncnc2c(=O)n(C)c(=O)nc1-2', 'Protein phosphatase methylesterase 1 (Homo sapiens)', 'MET'),
  ('COC(=O)c1nc(-c2ccc3c(n2)C(=O)C(N)=C(OC)C3=O)c(N)c(-c2ccc(OC)c(OC)c2O)c1C', 'Protein phosphatase methylesterase 1 (Homo sapiens)', 'MET'),
  ('C[n+]1c2ccccc2nc2ccc(NCCO)cc21', 'Protein phosphatase methylesterase 1 (Homo sapiens)', 'MET'),
  ('CC(=O)c1ccc2c(c1)C1C(Cl)C(Sc3ccccc3[N+](=O)[O-])CC1C(c1ccccc1[N+](=O)[O-])N2 (stereo unspecified)', 'Protein phosphatase methylesterase 1 (Homo sapiens)', 'NOT MET'),
  ('CNc1ccc2nc3ccccc3[n+](C)c2c1', 'Protein phosphatase methylesterase 1 (Homo sapiens)', 'MET'),
  ('O=C(CN1CC=C(c2ccccc2)CC1)Nc1c(Cl)cccc1Cl', 'Protein phosphatase methylesterase 1 (Homo sapiens)', 'NOT MET'),
  ('Cc1ccc(C(O)P(=O)(Oc2ccccc2)Oc2ccccc2)cc1 (stereo unspecified)', 'Protein phosphatase methylesterase 1 (Homo sapiens)', 'MET');

###

# Measured on: Nuclear receptor subfamily 5 group A member 2 (Homo sapiens) (UniProt O00482)
# Sequence (O00482 whole entry, looked up): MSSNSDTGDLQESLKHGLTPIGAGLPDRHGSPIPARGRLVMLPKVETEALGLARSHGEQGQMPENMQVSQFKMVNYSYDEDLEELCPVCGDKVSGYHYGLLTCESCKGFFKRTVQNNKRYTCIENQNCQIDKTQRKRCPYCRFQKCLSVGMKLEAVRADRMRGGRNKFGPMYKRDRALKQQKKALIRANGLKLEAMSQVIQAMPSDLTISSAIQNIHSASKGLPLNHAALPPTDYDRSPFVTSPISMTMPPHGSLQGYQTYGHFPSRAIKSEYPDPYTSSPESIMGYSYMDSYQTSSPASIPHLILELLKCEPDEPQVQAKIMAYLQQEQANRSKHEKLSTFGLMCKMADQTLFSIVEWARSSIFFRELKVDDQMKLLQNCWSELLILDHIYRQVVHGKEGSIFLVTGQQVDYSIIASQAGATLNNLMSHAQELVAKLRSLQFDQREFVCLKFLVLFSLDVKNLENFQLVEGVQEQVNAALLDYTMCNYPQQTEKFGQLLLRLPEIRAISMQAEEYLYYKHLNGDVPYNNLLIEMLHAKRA
# Measurement notes: LRH-1 (NR5A2) inverse agonists, retest, confirmation, cell-based, luminescence (AID 651613);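 further: HEK293T cells co-transfected with LRH-1 and StAR promoter luciferase reporter; 0% = vehicle wells and 100% = parental cells lacking receptor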
# Run parameters: cell-based LRH-1 luciferase reporter, inverse agonism; at 3.6 µM; active compounds read high
In this section, each of the molecules is paired with its reported inhibition.
Measurement name: inhibition (%)

INSERT INTO assay_data (molecule, observed) VALUES
  ('CCN1/C(=C/C=C/C2=[N+](CC)c3ccccc3C2(C)C)C(C)(C)c2ccccc21', 110),
  ('NC(=S)c1cn(C2OC(CO)C(O)C2O)c2ncnc(N)c12 (centres undefined)', 109),
  ('CC(=NCc1ccc(F)cc1)c1c(O)n(C)c(=O)n(C)c1=O', 51.4),
  ('CC(=O)OC1CC2(O)C3CCC4CC(O)CCC4(C)C3CCC2(C)C1C1=CC(=O)OC1 (centres undefined)', 111),
  ('CCC(C)N1C(=O)/C(=C\c2ccc(N3CCCCCC3)cc2)C(=O)NC1=S (centres undefined)', 58.9),
  ('CC(C)c1oc(=O)cc2c1[C@@H](O)[C@H]1OC(=O)[C@@]3(C)C[C@@H](O)[C@@H](O)[C@@]2(C)C13 (some centres undefined)', 104),
  ('CC[n+]1c(/C=C/N(C)c2ccccc2)sc2ccc(Cl)cc21', 83.7),
  ('CC[C@@]1(O)C(=O)OCc2c1cc1n(c2=O)Cc2cc3c(NC(=O)CN)cccc3nc2-1', 70),
  ('COC1/C=C/C=C(\C)Cc2cc(O)c(Cl)c(c2)N(C)C(=O)CC(OC(=O)C(C)C)C2(C)OC2C(C)C2CC1(O)NC(=O)O2 (centres undefined)', 60.1);

###

# Measurement notes: StAR promoter reporter inhibitors, counter-screen for LRH-1 inverse agonist project, cell-based, luminescence, high throughput (AID 651611)
# Run parameters: StAR promoter luciferase reporter counterscreen, at 3.6 µM, active compounds read high
// reported inhibition for each item listed
Measurement name: inhibition (%)

INSERT INTO results (compound, observed) VALUES
  ('CCN1CCN(c2cc(N3CCCC3)c([N+](=O)[O-])cc2F)CC1', 1.38),
  ('N#Cc1c(Br)n(C2OC(CO)C(O)C2O)c2ncnc(N)c12 (stereo unspecified)', 61.8),
  ('O=c1[nH]c2ccccc2n1C1CCN(C(c2ccccc2OC(F)(F)F)c2nnnn2-c2ccc3c(c2)OCCO3)CC1 (stereo unspecified)', 61.8),
  ('O=[N+]([O-])c1cc(F)c(N2CCCCCC2)cc1N1CCNCC1', 14.3),
  ('CC1CCC/C=C/C2CC(O)CC2C(O)/C=C/C(=O)O1 (stereo unspecified)', 78.9),
  ('c1ccc2c(c1)[IH]c1ccccc1-2', 42.4),
  ('C[C@]12CCC3C(CCC4=CC(O)CC[C@@]43/C=N/O)C1(O)CCC2C1=CC(=O)OC1 (stereo partly specified)', 94.8),
  ('CCOC(=O)[C@]12Cc3cc(Cl)ccc3[C@H]1N(CC(=O)OC)C(=O)c1ccccc12', 72.7),
  ('COC(=O)C12CCc3c(ccc4cc(OC)ccc34)C1=CC(=O)C2 (stereo unspecified)', 0.25),
  ('COc1ccccc1-n1c(/C=C/c2ccccn2)nc2ccccc2c1=O', 16.9),
  ('C[C@H]1[C@@H](OS(=O)(=O)O)C[C@@H]2C[C@H]([C@@H](O)c3cc(=O)[nH]c(=O)[nH]3)NC3=NC[C@H]1N32', 92.3),
  ('CC(C)(O)/C=C/C(=O)C(C)(O)C1C(O)CC2(C)C3CC=C4C(C=C(O)C(=O)C4(C)C)C3(C)C(=O)CC12C (stereo unspecified)', 66),
  ('Cc1ccc(-c2cc(-c3ccccc3)cc(-c3ccccc3)[n+]2-c2ccccc2)cc1', 83.6),
  ('CC[n+]1c(/C=C/N(C)c2ccccc2)sc2ccc(Cl)cc21', 23.7),
  ('CNC(=O)c1cccn(Cc2ccc(C(F)(F)F)cc2)c1=O', 47.7),
  ('O=[N+]([O-])c1ccc(N2CCOCC2)c2c1no[n+]2[O-]', 94.1),
  ('OC1(c2ccc(F)cc2)CC2CCC(C1)N2Cc1nnnn1C1CCCC1 (stereo unspecified)', -7.67),
  ('COc1ccc(-n2nnnc2C(CCc2ccccc2)N2CCC(n3c(=O)[nH]c4ccccc43)CC2)cc1 (stereo unspecified)', 48.7),
  ('Cc1nc2c(=O)n(C)c(=O)nc-2n(C)n1', 78.3),
  ('Cc1cc(OC(=O)c2ccco2)c2c3c(c(=O)oc2c1)CCCC3', 7.67),
  ('CCN(CC)C(=O)COc1cc(C)cc2oc(=O)c3c(c12)CCCC3', 7.68);

###

# System: transactivating tegument protein VP16 (Human herpesvirus 1)
# Measurement notes: VP16 transactivation reporter inhibitors, counter-screen for SRC2 inhibitor project, cell-based, luminescence, single concentration (AID 652007)
# Run parameters: cell-based VP16 transactivation luciferase reporter, at 8.9 µM
The source made the active and inactive calls. Rule as the data show it: active = inhibition above about 36%; inactive = the rest.
Outcome codes: active, inactive

INSERT INTO assay_data (compound, discrete_label) VALUES
  ('CC(=O)OC[C@]12CCC(C)=C[C@H]1O[C@@H]1[C@H](O)[C@@H](OC(C)=O)[C@@]2(C)[C@]12CO2', 'active'),
  ('CCOP(=O)(OCC)c1cccc(OP(=O)(c2cccc([N+](=O)[O-])c2)c2cccc([N+](=O)[O-])c2)c1', 'inactive'),
  ('C[C@]12CC[C@H](O)C[C@H]1CC[C@@H]1[C@@H]2CC[C@]2(C)[C@@H](C3=CC(=O)OC3)CC[C@]12O', 'active'),
  ('CCCCN=C[C@]12CCC(O)CC1(O)CCC1[C@@H]2CC[C@]2(C)[C@H](C3C=CC(=O)O3)CCC12O (stereo partly drawn)', 'active'),
  ('CC(=O)OC1(C)CC(C)C(=O)C(C(O)CC2CC(=O)NC(=O)C2)C1 (stereo not drawn)', 'active'),
  ('C[C@@H]1O[C@@H](O[C@@H]2C=C3CCC4C(CC[C@]5(C)[C@@H](c6ccc(=O)oc6)CC[C@]45O)[C@@]3(C)CC2)[C@H](O)[C@H](O)[C@H]1O (stereo partly drawn)', 'active'),
  ('COc1ccc(S(=O)(=O)N2Cc3cnnn3-c3ccccc3C2C#N)cc1 (stereo not drawn)', 'inactive'),
  ('N#CC1c2ccccc2-n2nncc2CN1Cc1cc(Cl)cc(Cl)c1 (stereo not drawn)', 'active'),
  ('Cc1ccccc1CN1Cc2cnnn2-c2ccccc2C1C#N (stereo not drawn)', 'active'),
  ('CC1CC(C)CC(C)C(O)C(C#N)=CC=CCC(C2CCCC2C(=O)O)OC(=O)CC(O)C(C)C1 (stereo not drawn)', 'active'),
  ('CC1OC(OC2C=C3CCC4C(CCC5(C)C(c6ccc(=O)oc6)CCC45O)C3(C)CC2)C(O)C(OC2OC(CO)C(O)C(O)C2O)C1O (stereo not drawn)', 'active'),
  ('Cc1nc2c(=O)n(C)c(=O)nc-2n(C)n1', 'active'),
  ('NC(=O)c1c(Br)n(C2OC(CO)C(O)C2O)c2ncnc(N)c12 (stereo not drawn)', 'inactive'),
  ('CCn1ccnc1CN1CCCC(C(=O)c2cccc(C(F)(F)F)c2)C1 (stereo not drawn)', 'inactive'),
  ('CC12CCC3C(CCC4(O)CC(O)CCC34C=NO)C1(O)CCC2C1=COC(=O)C1 (stereo not drawn)', 'active'),
  ('O=C(Nc1ccc(OC(=O)N2CCCCC2)cc1)N1CCOCC1', 'inactive'),
  ('c1ccc(-c2[nH]c(-c3ccccc3)[n+](CC3CO3)c2-c2ccccc2)cc1 (stereo not drawn)', 'inactive'),
  ('CC(=O)OC1CC(OC2C(O)CC(OC3C(O)CC(OC4CCC5(C)C(CCC6C5CC(O)C5(C)C(C7=CC(=O)OC7)CCC65O)C4)OC3C)OC2C)OC(C)C1OC1OC(CO)C(O)C(O)C1O (stereo not drawn)', 'active');
